- target_or_test_system: Protein deacetylase HDAC6 (Homo sapiens)
- measurement_setup: at 10 µM
Hit rate of the full screen: of about 5,600 compounds, about 150 (2.7%) showed an effect of 50% or more. For the sample, strong results were picked, then their nearest neighbours and some compounds at random.

[
  {
    "compound": "CS(=O)(=O)c1ccc(-c2cnc(N)c(C(=O)Nc3ccccc3)n2)cc1",
    "readout_unit": "%",
    "inhibition": 2.63
  },
  {
    "compound": "COc1ccc(S(=O)(=O)N2CCCN(S(=O)(=O)c3ccc(OC)c(OC)c3)CC2)cc1OC",
    "readout_unit": "%",
    "inhibition": -6.17
  },
  {
    "compound": "C[C@H]1O[C@@H](O[C@H]2CC[C@@]3(C)[C@H](CC[C@@H]4[C@@H]3C[C@@H](O)[C@]3(C)[C@@H](C5=CC(=O)OC5)CC[C@]43O)C2)C[C@H](O)[C@@H]1O[C@H]1C[C@H](O)[C@H](O[C@H]2C[C@H](O)[C@H](O[C@@H]3O[C@H](CO)[C@@H](O)[C@H](O)[C@H]3O)[C@@H](C)O2)[C@@H](C)O1",
    "readout_unit": "%",
    "inhibition": -2.28
  },
  {
    "compound": "O=C(Nc1ccc(Cl)cc1)Nc1ccc(Cl)c(Cl)c1",
    "readout_unit": "%",
    "inhibition": -2.56
  },
  {
    "compound": "c1ccc(OCc2ccc(CCCN3CCOCC3)cc2)cc1",
    "readout_unit": "%",
    "inhibition": 22.1
  },
  {
    "compound": "CN[C@@H](CCCNC(=N)N)C(=O)O",
    "readout_unit": "%",
    "inhibition": -8.08
  },
  {
    "compound": "O=C(/C=C/c1ccccc1)NC(NC(=S)Nc1cccc2cccnc12)C(Cl)(Cl)Cl (stereo unspecified)",
    "readout_unit": "%",
    "inhibition": 3.55
  },
  {
    "compound": "CC(C)(CCCCCC(O)CCCCCC(C)(C)C(=O)O)C(=O)O",
    "readout_unit": "%",
    "inhibition": 1.13
  },
  {
    "compound": "COc1cc(-c2ccc(/N=N/c3ccc4c(S(=O)(=O)O)cc(S(=O)(=O)O)c(N)c4c3O)c(OC)c2)ccc1/N=N/c1ccc2c(S(=O)(=O)O)cc(S(=O)(=O)O)c(N)c2c1O",
    "readout_unit": "%",
    "inhibition": 50.8
  },
  {
    "compound": "CC(C)OC(=O)Nc1cccc(Cl)c1",
    "readout_unit": "%",
    "inhibition": -4.5
  },
  {
    "compound": "c1cc(-c2cnn3cc(-c4ccc(OCCN5CCCCC5)cc4)cnc23)ccn1",
    "readout_unit": "%",
    "inhibition": 60.7
  },
  {
    "compound": "O=C(Nc1cnc(Cl)nc1)c1ccc(F)c(F)c1",
    "readout_unit": "%",
    "inhibition": -4.2
  },
  {
    "compound": "CN1CCN(c2cccc(Nc3nc4c(-c5ccc(S(C)(=O)=O)cc5)cccn4n3)c2)CC1",
    "readout_unit": "%",
    "inhibition": -1.82
  },
  {
    "compound": "CC(=O)OC[C@H](N)C(=O)O",
    "readout_unit": "%",
    "inhibition": 3.65
  },
  {
    "compound": "O=C(Nc1cccc(Cl)c1)c1ccccn1",
    "readout_unit": "%",
    "inhibition": 97.2
  },
  {
    "compound": "CS(=O)(=O)Nc1ccc(-c2coc3cc(OCc4cccc(C(=O)O)c4)ccc3c2=O)cc1",
    "readout_unit": "%",
    "inhibition": 57.5
  },
  {
    "compound": "Cc1c(Cl)cccc1S(=O)(=O)Nc1nc(CC(=O)N2CCN(C)CC2)cs1",
    "readout_unit": "%",
    "inhibition": 4.81
  },
  {
    "compound": "COc1cc(NC(=O)c2ccccn2)ccc1Cl",
    "readout_unit": "%",
    "inhibition": 94.4
  },
  {
    "compound": "N=C1N[C@H]2[C@H](CS[C@H]2CCCCC(=O)O)N1",
    "readout_unit": "%",
    "inhibition": 1.67
  },
  {
    "compound": "CC(C)c1ccc(C(=O)c2cccs2)c(SCCCCCCCCN(C)C)n1",
    "readout_unit": "%",
    "inhibition": 3.78
  },
  {
    "compound": "COC(=O)C1=C(C)N(C)C(C)=C(C(=O)OC)C1c1ccc(C(F)(F)F)cc1",
    "readout_unit": "%",
    "inhibition": 1.92
  },
  {
    "compound": "C[C@H]1NC(=O)NC1=O",
    "readout_unit": "%",
    "inhibition": 0.16
  },
  {
    "compound": "O=C(CCBr)N1CC[N+]2(CC1)CC[N+]1(CCN(C(=O)CCBr)CC1)CC2",
    "readout_unit": "%",
    "inhibition": 0.06
  },
  {
    "compound": "CC(=O)NS(=O)(=O)c1ccc(NC(=O)c2ccccc2C(=O)O)cc1",
    "readout_unit": "%",
    "inhibition": -6.68
  },
  {
    "compound": "Cc1ccc(-c2nn(C(C)(C)CNC(=O)c3ncccc3C)c3ncnc(N)c23)cc1",
    "readout_unit": "%",
    "inhibition": 6.88
  },
  {
    "compound": "COc1ccc([C@]2(O)CC[C@H](N3CC[C@@H](NC(=O)CNC(=O)c4cccc(C(F)(F)F)c4)C3)CC2)cn1",
    "readout_unit": "%",
    "inhibition": 0.65
  },
  {
    "compound": "O=C(O)c1ccccc1C(=O)Nc1ccc(-c2ccccc2)cc1",
    "readout_unit": "%",
    "inhibition": 54.2
  },
  {
    "compound": "O=c1c2ccccc2[se]n1-c1ccccc1",
    "readout_unit": "%",
    "inhibition": 52.4
  },
  {
    "compound": "COc1cccc(-n2nc(C(=O)O)cc2-c2ccc(C3CCCCC3)c(Cl)c2)c1",
    "readout_unit": "%",
    "inhibition": 1.57
  },
  {
    "compound": "CC(C)Oc1ccc(-c2cnc3c(-c4ccnc5ccccc45)cnn3c2)cc1",
    "readout_unit": "%",
    "inhibition": -1.97
  },
  {
    "compound": "Cc1cc(O)cc2c1O[C@@](C)(CCC[C@@H](C)CCC[C@@H](C)CCCC(C)C)CC2",
    "readout_unit": "%",
    "inhibition": -3.19
  },
  {
    "compound": "CN(C)CCCSc1ccccc1NC(=O)/C=C/c1ccccc1",
    "readout_unit": "%",
    "inhibition": 92.4
  },
  {
    "compound": "Cc1ccc(S(=O)(=O)Nc2ccc3c(c2)c(C(=O)C(F)(F)F)cn3CC(=O)N[C@@H](CC(C)C)C(=O)O)cc1",
    "readout_unit": "%",
    "inhibition": -4.82
  },
  {
    "compound": "CC(C)c1c2cc(-c3ccnc(N[C@H]4CC[C@H](NC5CCOCC5)CC4)n3)ccc2nn1C",
    "readout_unit": "%",
    "inhibition": 1.08
  },
  {
    "compound": "O=C(Nc1ccc(S(=O)(=O)Nc2ccccc2Cl)c(Cl)c1)c1ccccn1",
    "readout_unit": "%",
    "inhibition": 13.9
  },
  {
    "compound": "OCCCCO",
    "readout_unit": "%",
    "inhibition": -0.89
  },
  {
    "compound": "O=C(NO)c1cnc(N2CCN(S(=O)(=O)c3ccc4ccccc4c3)CC2)nc1",
    "readout_unit": "%",
    "inhibition": 96.2
  },
  {
    "compound": "Cc1nc(NS(=O)(=O)c2ccc(N)cc2)oc1C",
    "readout_unit": "%",
    "inhibition": 32.6
  },
  {
    "compound": "C[C@H]1N=C(N(C)C)N=C(N)N1",
    "readout_unit": "%",
    "inhibition": -1.55
  },
  {
    "compound": "Cc1oc(-c2ccccc2)nc1CCOc1ccc(CC2SC(=O)NC2=O)c2sccc12 (stereo unspecified)",
    "readout_unit": "%",
    "inhibition": -4.87
  },
  {
    "compound": "CCCCCCCCC(=O)N[C@H](CN1CCCC1)[C@H](O)c1ccc2c(c1)OCCO2",
    "readout_unit": "%",
    "inhibition": 6.86
  }
]
